Target: UniProtKB P9WHJ3
Assay: Fluorescence Cell-Free Homogeneous Dose Retest to Identify Inhibitors of RecA-Intein Splicing Activity. [Related pubchem assays (depositor defined):AID2097, AID2223, AID489010, AID492950]
Format: functional
Activity calls are given as the source filed them. Rule as the data show it: actives have a measured EC50 and inactives only a lower limit.
Could you please pick one outcome from this set? active, inactive

- compound: "COc1ccc(C(=O)N/N=C\\c2coc3ccc(Cl)cc3c2=O)cc1"
  assigned-class: "active"
- compound: "CCc1nc(SCC(=O)N2CCN(c3ccccc3)CC2)c2oc3ccccc3c2n1"
  assigned-class: "inactive"
- compound: "N#CC(C#N)C(c1ccsc1)c1c(-c2ccccc2)n[nH]c1O (stereo not given)"
  assigned-class: "active"
- compound: "O=C(Nc1ncc([N+](=O)[O-])s1)c1ccco1"
  assigned-class: "active"

Continue with the compound presented below.
stdin: For Cc1cccc(/C=N/NC(=O)C(C)Nc2cccc3ccccc23)n1 (stereo not given) , what call appears in the results of this test?
stdout: active
